tested on: U-2 OS; test: cell painting activity score (Mahalanobis distance from DMSO wells); higher = stronger morphological phenotype; details: 5 µM; 24 h
Measured cell painting activity score, listed per entry.
Answer field: number only, no words.

Consider the following illustrative entries.
Lookup: Quick one: cell painting activity score for NC(=O)c1ccc(I)c([N+](=O)[O-])c1 ?
Found: 3.68

Lookup: Record request: cell painting activity score value, item CN1C(=O)[C@@]23C[C@]4([C@]56C[C@@]78SS[C@@](CO)(C(=O)N7[C@H]5Nc5ccccc56)N(C)C8=O)c5ccccc5N[C@@H]4N2C(=O)[C@]1(CO)SS3
Found: 16.4

Lookup: I have this compound here, CCCCCCCCCCCCCCCCCCOP(=O)([O-])OC1CC[N+](C)(C)CC1 , and I need its recorded cell painting activity score.
Found: 3.98

Lookup: I have this compound here, CCCCCCCCCCCCCCCc1cccc(O)c1C(=O)O , and I need its recorded cell painting activity score.
Found: 3.63

Lookup: Would you mind telling me what cell painting activity score value was observed for CC(C)(C)c1cc(O)ccc1O ?
Found: 5.28

New cases:
Lookup: What value of measured cell painting activity score is listed for CCCCCC[C@H]1C(=O)O[C@H](C)[C@H](NC(=O)c2cccc(NC=O)c2O)C(=O)O[C@@H](C)[C@@H]1OC(=O)CC(C)C ?
Found: 12.9

Lookup: Quick check: cell painting activity score of Nc1nc(-c2ccccc2)ns1 ?
Found: 3.13
